Kindly supply the reported %Inh values for the records listed here.
# System: CSF1R
# measurementConditions: concentration: 1 μM, replicates: in singlicate; n = 1;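 further: KINOMEscan kinase panel screen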

Bench note, CSF1R: entry Cl.O=C(Nc1ccc(Oc2ccc3[nH]c(NC(=O)c4ccco4)nc3c2)cc1)Nc1cc(C(F)(F)F)ccc1F , its %Inh = 99.8%

%Inh on CSF1R for N#Cc1cnc2cc(-c3cnc(CNCCN4CCOCC4)s3)ccc2c1Nc1ccc(Oc2ccccc2)cc1 is 19%

Bench note, CSF1R: Cc1ccc(O)cc1Nc1ccnc2cc(-c3ccc(CN4CCCCC4)o3)ccc12 , %Inh reads 96.7%

Tested system CSF1R; %Inh recorded for O=C(O)C(F)(F)F.O=c1[nH]ccc2nc(N[C@@H]3CCNC3)nc(Nc3ccc4c(c3)S(=O)(=O)CC4)c12 was 86%

The reported %Inh value, CSF1R, for Cl.N#CCc1ccc(Nc2nccc(Nc3ccc(Oc4ccccc4)cc3)n2)cc1 reads 35%

Record CN(C)CCOc1ccc(-c2cc(-c3ccc(Cl)c(O)c3)c(-c3ccncc3)[nH]2)cc1.Cl.Cl / CSF1R, %Inh recorded as 5%

Here CS(=O)(=O)c1cccc(CNc2nc(Nc3ccc4c(c3)CCC(=O)N4)ncc2C(F)(F)F)c1 was tested on CSF1R, and its %Inh came to 20%

Query Cc1ccc(-c2ccc3occ(-c4ccc(S(C)=O)cc4)c3c2)nn1 (centres unmarked) on CSF1R; %Inh returned: 0%

* * *

# Tested on: NEK4
# measurementConditions: concentration: 1 μM, replicates: in singlicate; n = 1
metric: %Inh (%)
Entry rule: numbers only, all in %.

Measured %Inh of COc1cccc2c(-c3ccncc3)c(-c3ccc(F)cc3)nn12 : 4

Form field %Inh, entry CCn1cnc2c(NCc3ccccc3)ncnc21 : 0

Lab book: %Inh of CC(C)(C)c1ccc(C(=O)Nc2cn3cc(-n4ccnc4)ccc3n2)cc1 noted as 0

Quick note, %Inh for O=C1NC(=O)C(c2ccccc2Cl)=C1Nc1cccc(Cl)c1 landed at 11

The recorded %Inh for Nc1ncc(-c2cn[nH]c2)c2scc(-c3ccc4c(c3)CCN4C(=O)Cc3ccccc3)c12 is 11

// field: %Inh; key: Cl.Cl.NC(CNC(=O)c1cc(Br)c(-c2ccnc3[nH]ccc23)s1)c1ccccc1 (centres unmarked) ; value = 0

The recorded %Inh for entry N#Cc1cnc2cc(-c3cnc(CNCCN4CCOCC4)s3)ccc2c1Nc1ccc(Oc2ccccc2)cc1 equals 1

%Inh reading for Cc1ccc(NC(=O)c2cccc(N3CCCCC3)c2)cc1-c1ccc(C(=O)NCC2CC2)cc1 : 23

Recorded result, NCCC(NC(=O)c1cc(Br)c(-c2ccnc3[nH]ccc23)s1)c1ccccc1.O=C(O)C(F)(F)F.O=C(O)C(F)(F)F (centres unmarked) , %Inh: 0

Lab note: measured %Inh of CC(C)c1nc(-c2ccc(F)c(NS(=O)(=O)c3c(F)cccc3F)c2)c(-c2ccnc(Nc3ccc(N4CCOCC4)nc3)n2)s1 was 10

Noted for Cn1cc(-c2ccc3c(c2)CCN3C(=O)Cc2cc(F)cc(F)c2F)c2c(N)ncnc21 : its %Inh reads 32

Noted for CCNC(=O)/C=C/c1n[nH]c2cc(Sc3ccccc3C(=O)NC)ccc12 : its %Inh reads 0

Entry under test: CC(C)NCC(Cc1ccccc1)NC(=O)c1cc(Br)c(-c2ccnc3[nH]ccc23)s1.Cl.Cl (centres unmarked) . Its %Inh was 0

Notebook: Cc1ccc(C)c(NC(=O)Nc2ccc(C)c(-c3ccc(C(=O)Nc4ccncc4)cc3)c2)c1 , %Inh read as 0

Source of measurements: paper PMC5540273
